# Target system: F508delCFTR (Homo sapiens, UniProt P13569, DEL508-508)
# Construct: expressed in transfected cells; host or cells: CFBE41o- (human lung derived epithelial cell line), doxycycline-inducible expression
# Sequence (P13569 with tags, fused parts or gaps DEL508-508): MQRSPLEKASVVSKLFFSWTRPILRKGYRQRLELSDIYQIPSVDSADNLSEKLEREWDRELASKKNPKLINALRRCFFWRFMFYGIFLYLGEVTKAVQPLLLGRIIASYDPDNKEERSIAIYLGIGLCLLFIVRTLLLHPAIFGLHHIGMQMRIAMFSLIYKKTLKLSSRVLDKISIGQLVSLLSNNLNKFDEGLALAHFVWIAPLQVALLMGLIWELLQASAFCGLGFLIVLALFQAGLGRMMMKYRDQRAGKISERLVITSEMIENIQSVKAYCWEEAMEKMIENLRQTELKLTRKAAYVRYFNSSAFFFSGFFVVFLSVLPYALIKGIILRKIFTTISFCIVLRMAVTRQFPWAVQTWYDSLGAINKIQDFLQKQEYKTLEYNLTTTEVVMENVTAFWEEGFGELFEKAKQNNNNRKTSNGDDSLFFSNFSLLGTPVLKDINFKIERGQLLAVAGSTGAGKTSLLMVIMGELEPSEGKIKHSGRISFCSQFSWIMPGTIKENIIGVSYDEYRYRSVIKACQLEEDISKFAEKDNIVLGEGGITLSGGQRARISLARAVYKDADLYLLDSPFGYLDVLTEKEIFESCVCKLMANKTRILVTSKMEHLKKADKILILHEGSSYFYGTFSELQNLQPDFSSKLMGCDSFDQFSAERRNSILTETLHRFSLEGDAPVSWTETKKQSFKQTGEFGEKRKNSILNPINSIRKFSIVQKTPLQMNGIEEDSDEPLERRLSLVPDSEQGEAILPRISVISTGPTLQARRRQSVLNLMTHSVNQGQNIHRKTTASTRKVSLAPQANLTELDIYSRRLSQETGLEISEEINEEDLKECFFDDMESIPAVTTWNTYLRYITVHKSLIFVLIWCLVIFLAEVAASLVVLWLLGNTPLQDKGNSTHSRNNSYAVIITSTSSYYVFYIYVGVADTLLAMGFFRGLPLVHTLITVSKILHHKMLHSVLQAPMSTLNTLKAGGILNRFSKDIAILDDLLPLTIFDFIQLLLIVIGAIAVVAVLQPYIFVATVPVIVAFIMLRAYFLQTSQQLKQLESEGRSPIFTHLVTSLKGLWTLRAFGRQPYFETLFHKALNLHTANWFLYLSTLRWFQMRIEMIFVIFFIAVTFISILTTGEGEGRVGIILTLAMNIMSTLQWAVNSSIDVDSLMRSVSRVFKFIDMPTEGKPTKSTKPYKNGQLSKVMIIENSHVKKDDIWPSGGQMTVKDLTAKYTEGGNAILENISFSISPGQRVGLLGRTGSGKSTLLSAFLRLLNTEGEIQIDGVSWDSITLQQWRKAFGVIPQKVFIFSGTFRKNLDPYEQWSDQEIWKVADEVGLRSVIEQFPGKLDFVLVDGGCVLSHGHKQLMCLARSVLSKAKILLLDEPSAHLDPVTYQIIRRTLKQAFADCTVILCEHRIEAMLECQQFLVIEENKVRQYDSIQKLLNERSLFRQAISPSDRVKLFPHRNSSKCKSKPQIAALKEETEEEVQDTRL
# Protocol notes: Cell Surface Expression-Horse Radish Peroxidase (CSE-HRP) assay
# Assay type: cell-based
# Experimental parameters: CFBE41o-F508delCFTR-HRP cells; with co-corrector (2 μM of 3-[(2R,4R)-4-({[1-(2,2-difluoro-1,3-benzodioxol-5-yl)cyclopropyl]carbonyl}amino)-7-methoxy-3,4-dihydro-2H-chromen-2-yl]benzoic acid); read-out: EC50 (with co-corrector)
pEC50: −log10 of the molar value.
Metric name: pEC50

1. COc1ncc(C(F)(F)F)cc1CO[C@H]1[C@H](C(C)(C)C)[C@@H](C(=O)O)N(C(=O)[C@@H]2CCCCO2)[C@H]1c1cccc(C(C)(C)C)c1 [Example 158] = > 6.00
2. COc1ncc(Br)cc1CO[C@H]1[C@H](C(C)(C)C)[C@@H](C(=O)O)N(C(=O)OC(C)C)[C@H]1c1ccccc1F [Example 76] = 5.00 to 6.00
3. COc1ncc(C(F)(F)F)cc1CO[C@H]1[C@H](C(C)(C)C)[C@@H](C(=O)O)N(C(=O)[C@@H]2CCCCO2)[C@H]1c1cccc2ccoc12 [Example 212] = 5.00 to 6.00
4. CN(C)c1ncc(C(F)(F)F)cc1CO[C@@H]1[C@@H](C(C)(C)C)[C@H](C(=O)O)N(C(=O)C2CCCCC2)[C@@H]1c1ccccc1 (racemic) [Example 12] = 5.00 to 6.00
5. COc1ccc(C(C)(C)C)cc1CO[C@H]1[C@H](C(C)(C)C)[C@@H](C(=O)O)N(C(=O)[C@@H]2CCCO2)[C@H]1c1ccccc1Br [Example 162] = > 6.00
6. COc1ncc(C(F)(F)F)cc1CO[C@H]1[C@H](C(C)(C)C)[C@@H](C(=O)O)N(C(=O)[C@@H]2CCCCO2)[C@H]1c1cccc(Cl)c1C [Example 232] = > 6.00
7. COc1ncc(C(F)(F)F)cc1CO[C@H]1[C@H](C(C)(C)C)[C@@H](C(=O)O)N(C(=O)OC(C)C)[C@H]1c1cccnc1OC(C)C [Example 147] = > 6.00
8. COc1ccc(Br)cc1CO[C@H]1[C@H](C(C)(C)C)[C@@H](C(=O)O)N(C(=O)OC(C)C)[C@H]1c1ccccc1 [Example 36] = 5.00 to 6.00
9. COc1ncc(Br)cc1CO[C@H]1[C@H](C(C)(C)C)[C@@H](C(=O)O)N(C(=O)[C@@H]2CCCO2)[C@H]1c1ccccc1C1CC1 [Example 173] = 5.00 to 6.00
10. COc1ncc(C2CCC2)cc1CO[C@H]1[C@H](C(C)(C)C)[C@@H](C(=O)O)N(C(=O)C2(C(F)(F)F)CC2)[C@H]1c1cccnc1OC(C)C [Example 275] = 5.00 to 6.00
11. COc1ncc(C2CCC2)cc1CO[C@H]1[C@H](C(C)(C)C)[C@@H](C(=O)O)N(C(=O)OC(C)C)[C@H]1c1ccccc1F [Example 77] = 5.00 to 6.00
12. COc1ncc(C(F)(F)F)cc1CO[C@H]1[C@H](C(C)(C)C)[C@@H](C(=O)O)N(C(=O)O[C@@H](C)C(F)(F)F)[C@H]1c1cccnc1OC(C)C [Example 271] = > 6.00

Attribution: patent US10399940B2
